Kindly supply the reported TGI values for the records listed here.
- System: SK-MEL-2 melanoma
- ASSAY INFO: NCI tumour cell line growth inhibition, 48 h

Query string: Item: `O=C(OC(=C(c1ccccc1)c1ccccc1)N1CCCC1=S)C(c1ccccc1)c1ccccc1` Test system: SK-MEL-2 melanoma Read-out: TGI Value: ?
Result string: > 10 µM

Query string: Item: COC(=O)C(Cc1ccccc1)OC(=O)C(N)CC(=O)O (stereo unspecified) Test system: SK-MEL-2 melanoma Read-out: TGI Value: ?
Result string: > 100 µM

Query string: Item: `COc1cc(-n2cc(-c3ccc(Cl)cc3)[nH]c2=O)cc(OC)c1OC` Test system: SK-MEL-2 melanoma Read-out: TGI Value: ?
Result string: > 100 µM

Query string: Item: Cc1ccc(C)c(NC(=O)CC/C(=N\NC(=O)C(N)=O)C(C)C(=O)c2ccc(O)cc2)c1 (stereo unspecified) Test system: SK-MEL-2 melanoma Read-out: TGI Value: ?
Result string: > 100 µM

Query string: Item: Cc1ccc(S(=O)(=O)OC2C(C3COC(C)(C)O3)OC3OC(C)(C)OC32)cc1 (stereo unspecified) Test system: SK-MEL-2 melanoma Read-out: TGI Value: ?
Result string: > 100 µM

Query string: Item: O=C(Nc1nc2ncn(CC(COc3ccccc3)OC(=O)c3ccccc3)c2c(=O)[nH]1)c1ccccc1 (stereo unspecified) Test system: SK-MEL-2 melanoma Read-out: TGI Value: ?
Result string: > 100 µM

----------
Kindly supply the reported GI50 values for the records listed here.
- System: OVCAR-5 ovarian
- ASSAY INFO: NCI tumour cell line growth inhibition, 48 h

Query string: What measured GI50 goes with COc1ccc(C2=NN(C(C)=O)C(c3cn(-c4ccccc4)nc3-c3ccc(Cl)cc3)C2)cc1 (centres undefined) ?
Result string: > 100 µM

Query string: What measured GI50 goes with `Cc1nc(NC(=O)CCCN2C(=O)c3cccc4cccc(c34)C2=O)sc1C(=O)Nc1cc(C(=O)NCCCN(C)C)n(C)c1` ?
Result string: > 100 µM

Query string: What measured GI50 goes with `COc1cc(C(=O)c2cc3c(cc2C)OCO3)cc(OC)c1OC` ?
Result string: 0.439 µM

Query string: What measured GI50 goes with `COc1ccc2c(c1)CC[C@@H]1[C@@H]2CC[C@]2(C)C(c3ccco3)=C(C=O)C[C@@H]12` ?
Result string: 30.5 µM

Query string: What measured GI50 goes with `CCn1cnc2c(Nc3cccc(Cl)c3)nc(N[C@@H]3CCCC[C@@H]3N)nc21` ?
Result string: 1.81 µM

Query string: What measured GI50 goes with `CCCc1nc2c(C)cc(-c3nc4ccccc4n3C)cc2n1Cc1ccc(-c2ccccc2C(=O)O)cc1` ?
Result string: > 100 µM

Query string: What measured GI50 goes with COc1ccc2c(c1)CCC1C2CC[C@]2(C)/C(=N/OC(=O)Cc3ccccc3)CCC12 (some centres undefined) ?
Result string: 46.6 µM

Query string: What measured GI50 goes with `C=C1C(=O)O[C@H]2[C@H]1CC/C(COC(=O)NCc1c[nH]c3ccc(Cl)cc13)=C\CC[C@@]1(C)O[C@@H]21` ?
Result string: 1.77 µM

Query string: What measured GI50 goes with `CSc1nc2sc3cc(Cl)ccc3n2c(=N)c1C#N` ?
Result string: > 62.7 µM

Query string: What measured GI50 goes with `COc1cc(-n2cc(-c3ccc(Cl)cc3)[nH]c2=O)cc(OC)c1OC` ?
Result string: 22.7 µM

Query string: What measured GI50 goes with `C=C(C)[C@@H]1CC[C@]2(C)[C@H](CC[C@@H]3[C@H]4[C@H]5OC[C@@]4(CCC5(C)C)CC[C@]32C)[C@@]1(C)CCCN` ?
Result string: 1.71 µM

Query string: What measured GI50 goes with `N#Cc1ccnc(N2C(=O)CC[C@H]2C(=O)N(c2cncc(F)c2)[C@H](C(=O)NC2CC(F)(F)C2)c2ccccc2Cl)c1` ?
Result string: > 100 µM

Query string: What measured GI50 goes with `NS(=O)(=O)c1ccc(CCN=C=S)cc1` ?
Result string: 1.85 µM

Query string: What measured GI50 goes with `Cn1cc(C2=C(c3cn(CCN)c4ccccc34)C(=O)NC2=O)c2ccccc21` ?
Result string: 10.8 µM

----------
- Tested on: UACC-62 melanoma
- ASSAY INFO: NCI tumour cell line growth inhibition, 48 h
Where a SMILES comes first, the peptide text is derived from it. [ ]: non-standard residue; d: D form. The star is where a group is joined. Octanoyl = CCCCCCCC(=O)*; Aib = CC(C)(N)C(=O)O; tBu = CC(C)(C)*
METRIC NAME: TGI

Query string: What measured TGI goes with CC1C=CC(=O)C(n2cc(F)c(=O)[nH]c2=O)O1 (configuration not stated) ?
Result string: 31.7 µM

Query string: What measured TGI goes with `NS(=O)(=O)c1ccc(CNc2nc(-c3cccs3)nc3ccc(I)cc23)cc1` ?
Result string: 31.5 µM

Query string: What measured TGI goes with `Nc1c(-c2ccc(Cl)cc2Cl)[n+]([O-])c2ccccc2[n+]1[O-]` ?
Result string: > 100 µM

Query string: What measured TGI goes with `Cc1ccc(C)c(-c2csc(Nc3ccc(C)c(C)c3)n2)c1` ?
Result string: > 100 µM

Query string: What measured TGI goes with `NC1=N/C(=C2/CCNC(=O)c3[nH]c(Br)cc32)C(=O)N1` ?
Result string: > 100 µM

Query string: What measured TGI goes with `COc1ccc([N+](=O)[O-])c(S(=O)(=O)c2ccc(Cl)cc2)n1` ?
Result string: 13.3 µM

Query string: What measured TGI goes with CC1CCC2C(C(=O)O[C@H]3C4CCO[C@@H](OC5OC(CO)C(O)C(O)C5O)C4[C@@]4(CO)O[C@@H]34)=CO[C@@H](OC3OC(CO)C(O)C(O)C3O)C12 (some centres not stated) ?
Result string: > 10 µM

Query string: What measured TGI goes with CCCCCCCC(=O)NC(C)(C)C(=O)NC(COC(C)(C)C)C(=O)NC(CC(C)C)C(=O)NC(C)(C)C(=O)NC(COC(C)(C)C)C(=O)NC(COC(C)(C)C)C(=O)NC(CC(C)C)C(=O)NC(C)(C)C(=O)NC(COC(C)(C)C)C(=O)NC(C(=O)NC(CC(C)C)C(=O)OC)C(C)CC (configuration not stated) (Octanoyl-[Aib]S(tBu)L[Aib]S(tBu)S(tBu)L[Aib]S(tBu)IL-OMe; configuration not given here) ?
Result string: 23.7 µM

Query string: What measured TGI goes with CCOC(=O)CCC(NC(=O)c1ccc(OCc2nc3ccccc3n3cccc23)cc1)C(=O)OCC (configuration not stated) ?
Result string: > 100 µM

Query string: What measured TGI goes with `COc1ccc(C(c2c(O)c3ccccc3n(C)c2=O)c2c(O)c3ccccc3n(C)c2=O)cc1` ?
Result string: 98 µM

Query string: What measured TGI goes with `O=[N+]([O-])c1cc(Cl)cc2cc(Cl)cnc12` ?
Result string: > 100 µM

Query string: What measured TGI goes with `O=c1ccn2n1CCCCC2` ?
Result string: > 100 µM

Query string: What measured TGI goes with Cc1ccccc1C(C#N)C(=O)C(=O)Nc1cccc(Cl)c1 (configuration not stated) ?
Result string: > 100 µM

Query string: What measured TGI goes with N#CC1=C(N)OC(c2ccc([N+](=O)[O-])cc2)C1(C#N)C#N (configuration not stated) ?
Result string: 24.3 µM

Query string: What measured TGI goes with `C1=Cc2nc1c(-c1ccncc1)c1ccc([n-]1)c(-c1ccncc1)c1nc(c(-c3ccncc3)c3ccc([n-]3)c2-c2ccncc2)C=C1.[Zn+2]` ?
Result string: > 100 µM

Query string: What measured TGI goes with `CN(C1=NCCO1)c1cccc2c1CCCC2` ?
Result string: > 10 µM

Query string: What measured TGI goes with Cc1ccc(C)c(NC(=O)CC/C(=N\NC(=O)C(N)=O)C(C)C(=O)c2ccc(O)cc2)c1 (configuration not stated) ?
Result string: > 100 µM

Query string: What measured TGI goes with `O=C1CC2(CCNCC2)C(=O)N1N1CCCC1` ?
Result string: > 100 µM

Query string: What measured TGI goes with N#CC(c1cc2c(cc1Br)OCO2)N1CCOCC1 (configuration not stated) ?
Result string: > 100 µM

Query string: What measured TGI goes with `CCOP(=O)(C=C=C(C)C)OCC` ?
Result string: > 100 µM

Query string: What measured TGI goes with `O=C(Nc1c(O)[nH]c(=S)[nH]c1=O)c1ccc2ccccc2n1` ?
Result string: > 100 µM

Query string: What measured TGI goes with `NCCCN1CCN(CC(=O)O)CCN(CCCN)CCN(CC(=O)O)CC1` ?
Result string: > 100 µM

----------
- Tested on: 786-0 renal
- ASSAY INFO: NCI tumour cell line growth inhibition, 48 h; in the data active = GI50 below about 0.43 µM; inactive = the rest
Result category, one only: active, inactive

Query string: Outcome logged for `CCCc1nc2c(C)cc(-c3nc4ccccc4n3C)cc2n1Cc1ccc(-c2ccccc2C(=O)O)cc1` in this assay:
Result string: inactive

Query string: Outcome logged for `COC1=CC(c2ccc[nH]2)=N/C1=C\c1ccc[nH]1` in this assay:
Result string: active

Query string: Outcome logged for `Cc1[nH]c(=O)[nH]c(=O)c1CO` in this assay:
Result string: inactive
